assay text: self-splicing fitness, log relative to wild type (ln ratio); higher = more splicing; Tetrahymena group I intron in knt gene, E. coli kanamycin selection, DiMSum; sequences stand for … in CUCUCU…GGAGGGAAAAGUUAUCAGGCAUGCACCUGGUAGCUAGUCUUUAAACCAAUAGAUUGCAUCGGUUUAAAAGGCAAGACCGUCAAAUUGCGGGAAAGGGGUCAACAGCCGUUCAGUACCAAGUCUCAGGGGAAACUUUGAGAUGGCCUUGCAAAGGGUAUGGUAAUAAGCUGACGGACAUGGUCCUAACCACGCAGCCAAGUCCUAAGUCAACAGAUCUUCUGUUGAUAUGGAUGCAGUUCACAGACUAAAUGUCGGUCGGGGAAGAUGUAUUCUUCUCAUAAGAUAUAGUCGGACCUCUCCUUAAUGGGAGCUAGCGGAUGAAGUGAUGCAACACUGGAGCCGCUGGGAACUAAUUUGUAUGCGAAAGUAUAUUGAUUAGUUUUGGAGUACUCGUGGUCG;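 note: selection with 25 µg/mL kanamycin versus none on LB agar overnight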
applied conditions: 37 °C
// self-splicing fitness (ln) lookup, one value per entry
attribute measured: self-splicing fitness (ln)

[[record]]
seq = "UCCCAGCAAUAUUACGAUAC"
attribute_measured = "self-splicing fitness (ln)"
observed_value = -2.45

[[record]]
seq = "AUCAAGCAAUAUUACGUCAC"
attribute_measured = "self-splicing fitness (ln)"
observed_value = -2.28

[[record]]
seq = "UGUAAGCAAUAUUACGUUAA"
attribute_measured = "self-splicing fitness (ln)"
observed_value = -0.926


###

assay text: self-splicing fitness, log relative to wild type (ln ratio); higher = more splicing; Tetrahymena group I intron in knt gene, E. coli kanamycin selection, DiMSum; sequences stand for … in CUCUCU…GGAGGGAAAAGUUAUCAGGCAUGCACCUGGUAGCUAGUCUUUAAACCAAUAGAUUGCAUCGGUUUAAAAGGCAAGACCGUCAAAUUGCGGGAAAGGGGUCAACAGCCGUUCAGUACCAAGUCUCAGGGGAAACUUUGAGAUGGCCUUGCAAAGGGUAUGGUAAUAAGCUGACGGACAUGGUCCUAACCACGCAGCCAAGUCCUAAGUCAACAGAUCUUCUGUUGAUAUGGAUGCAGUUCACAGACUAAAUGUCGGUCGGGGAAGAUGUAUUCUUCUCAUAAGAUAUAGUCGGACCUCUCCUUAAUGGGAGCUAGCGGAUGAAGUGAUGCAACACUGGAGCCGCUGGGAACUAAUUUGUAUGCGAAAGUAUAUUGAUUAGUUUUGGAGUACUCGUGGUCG
applied conditions: 37 °C
Lab note: compare self-splicing fitness (ln) against -1. Equal or greater, write criterion met. Smaller, write criterion not met.

[[record]]
seq = "CAUCAGCAAUAUUACGUGGA"
classification = "criterion not met"

[[record]]
seq = "CAUGAGCAAUAUUACGUUGG"
classification = "criterion not met"

[[record]]
seq = "CCGGAGCAAUAUUACGAAAC"
classification = "criterion met"

[[record]]
seq = "GGCUAGCAAUAUUACGUGGC"
classification = "criterion not met"

[[record]]
seq = "UCGCAGCAAUAUUACGUGCC"
classification = "criterion not met"

[[record]]
seq = "CACGAGCAAUAUUACGAGUG"
classification = "criterion not met"

[[record]]
seq = "ACAAAGCAAUAUUACGGGCC"
classification = "criterion not met"

[[record]]
seq = "GGACAGCAAUAUUACGUCCA"
classification = "criterion met"

[[record]]
seq = "GGUGAGCAAUAUUACGUCUC"
classification = "criterion not met"

[[record]]
seq = "CCGGAGCAAUAUUACGGCGA"
classification = "criterion not met"

[[record]]
seq = "GGGUAGCAAUAUUACGUUAG"
classification = "criterion not met"

[[record]]
seq = "AUCGAGCAAUAUUACGAUGC"
classification = "criterion not met"

[[record]]
seq = "UACGAGCAAUAUUACGCCGG"
classification = "criterion met"

[[record]]
seq = "CCCAAGCAAUAUUACGGACG"
classification = "criterion not met"

[[record]]
seq = "GGUCAGCAAUAUUACGACGG"
classification = "criterion met"

[[record]]
seq = "UCUAAGCAAUAUUACGAAGU"
classification = "criterion not met"

[[record]]
seq = "UGUGAGCAAUAUUACGUACC"
classification = "criterion met"

[[record]]
seq = "GUUGAGCAAUAUUACGACGC"
classification = "criterion met"

[[record]]
seq = "GGACAGCAAUAUUACGCCCU"
classification = "criterion met"

[[record]]
seq = "CCCCAGCAAUAUUACGCGCC"
classification = "criterion not met"

[[record]]
seq = "UGAGAGCAAUAUUACGCGCG"
classification = "criterion not met"

[[record]]
seq = "CCUGAGCAAUAUUACGUGAC"
classification = "criterion not met"

[[record]]
seq = "AAUAAGCAAUAUUACGUAAG"
classification = "criterion met"

[[record]]
seq = "ACAAAGCAAUAUUACGCUUC"
classification = "criterion not met"

[[record]]
seq = "GUAAAGCAAUAUUACGAUCU"
classification = "criterion met"

[[record]]
seq = "GUGAAGCAAUAUUACGUGGU"
classification = "criterion not met"

